Entries annotated with measured MIC
test system: Bacillus subtilis; assay: Antibacterial activity against Bacillus subtilis measured after 20 to 45 mins by broth microdilution method; type: functional; details: time 20-45 min
result type: MIC (µg/mL)

>>> recorded_value("CC1=C[C@@H]2/C=C(\\C)CC[C@@H](O)C(=O)C[C@@H](S[C@H]3CCC[C@H](C)OC(=O)Cc4cc(O)cc(O)c4C(=O)C3)C(=O)[C@]23C(=O)N[C@@H](CC(C)C)[C@@H]3[C@@H]1C")
6.3
>>> recorded_value("CC1=C[C@@H]2/C=C(\\C)CC[C@@H](O)C(=O)C[C@@H](S[C@@H]3CCC[C@H](C)OC(=O)Cc4cc(O)cc(O)c4C(=O)C3)C(=O)[C@]23C(=O)N[C@@H](CC(C)C)[C@@H]3[C@@H]1C")
6.3
